Biological target: RhlR (Pseudomonas aeruginosa)
Construct: expressed in transfected cells; host or cells: E. coli JLD271 (ΔsdiA) with pJN105R2 (arabinose-induced) and pSC11-rhlI*
Sequence (P54292 whole entry): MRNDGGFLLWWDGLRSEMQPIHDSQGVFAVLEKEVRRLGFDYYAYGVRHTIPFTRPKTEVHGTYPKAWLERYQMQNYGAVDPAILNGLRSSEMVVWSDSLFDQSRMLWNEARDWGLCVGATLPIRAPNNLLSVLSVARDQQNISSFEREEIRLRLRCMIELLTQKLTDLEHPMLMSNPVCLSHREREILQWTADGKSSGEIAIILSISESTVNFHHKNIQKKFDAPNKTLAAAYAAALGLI
Experiment: E. coli RhlR reporter agonism assay (JLD271/pJN105R2/pSC11-rhlI*)
Format: cell-based, P. aeruginosa
Conditions: compound at 10 μM; RhlR activity relative to 1 mM BHL; E. coli reporter
MEASURED PROPERTY: activation at 10 µM (%)

CCCC(=O)O[C@H]1CCOC1=O: 0
O=C(N[C@H]1CCOC1=O)C1CC1: 32
O=C(CC1CC1)N[C@H]1CCOC1=O: 70
C/C=C\CC(=O)N[C@H]1CCOC1=O: 52
CCCCC(=O)N[C@H]1CCOC1=O: 53
CCCC(=O)N[C@H]1CCNC1=O: 1
CC(C)CC(=O)N[C@H]1CCOC1=O: 86
O=C(COc1ccc(I)cc1)NC1CCCC1: 1
CCC(=O)N[C@H]1CCOC1=O: 25
CCC(CC)C(=O)N[C@H]1CCOC1=O: 28

###

Target: RhlR (Pseudomonas aeruginosa)
Construct: expressed in transfected cells; host or cells: E. coli JLD271 (ΔsdiA) with pJN105R2 (arabinose-induced) and pSC11-rhlI*
Experiment: P. aeruginosa RhlR reporter antagonism assay vs 10 μM BHL (PAO-JP2/prhlI-LVAgfp)
Format: cell-based
Conditions: P. aeruginosa reporter vs 10 μM BHL; read-out: IC50 for RhlR inhibition
MEASURED PROPERTY: IC50 (µM)

O=C(COc1ccc(I)cc1)N[C@H]1CCSC1=O [RN22]: 31

###

Target: LasR (Pseudomonas aeruginosa, UniProt P25084)
Construct: expressed in transfected cells; host or cells: E. coli JLD271 (ΔsdiA) with pJN105L and pSC11
Sequence (P25084 whole entry): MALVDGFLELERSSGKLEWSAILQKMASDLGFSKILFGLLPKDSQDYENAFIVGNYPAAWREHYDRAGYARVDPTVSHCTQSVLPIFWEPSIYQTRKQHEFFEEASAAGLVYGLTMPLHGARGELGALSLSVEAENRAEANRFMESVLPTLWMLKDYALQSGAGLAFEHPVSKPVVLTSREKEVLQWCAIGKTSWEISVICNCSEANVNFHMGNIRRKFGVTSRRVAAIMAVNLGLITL
Test: Selectivity of RhlR agonism over LasR agonism (E. coli LasR reporter JLD271/pJN105L/pSC11)
Type: cell-based, P. aeruginosa
Details: tested concentration 1 mM; RhlR % activity divided by LasR % activity; > = negligible activity in LasR reporter
Note to self: use satisfied only for Fold selectivity of RhlR agonists over LasR agonism readings below 10 fold; a reading exactly at 10 fold still gets not satisfied.

O=C(N[C@H]1CCSC1=O)C1CCC1 [RN15]: not satisfied
O=C(N[C@H]1CCOC1=O)C1CCC1 [Compound J24, cyclobutanoyl AHL]: not satisfied
O=C(N[C@H]1CCCC1=O)C1CCC1 [RN12]: satisfied
CCCC(=O)N[C@H]1CCSC1=O [RN8]: satisfied
CCCC(=O)N[C@H]1CCOC1=O [BHL, N-butanoyl L-homoserine lactone, reference compound]: not satisfied
CC(C)CC(=O)N[C@H]1CCSC1=O [RN37]: not satisfied

###

Quick list: Emax per entry.
Target: RhlR (Pseudomonas aeruginosa)
Construct: expressed in transfected cells; host or cells: E. coli JLD271 (ΔsdiA) with pJN105R2 (arabinose-induced) and pSC11-rhlI*
Test: P. aeruginosa RhlR reporter agonism assay (PAO-JP2/prhlI-LVAgfp)
Assay type: cell-based
Conditions: read-out: Maximum Activation (%)
MEASURED PROPERTY: Emax (%)

CCCC(=O)N[C@H]1CCOC1=O [BHL, N-butanoyl L-homoserine lactone, reference compound]: 100
O=C(N[C@H]1CCCC1=O)C1CCC1: 96
O=C(N[C@H]1CCSC1=O)C1CCC1: 90
CC(C)CC(=O)N[C@H]1CCCC1=O: 96
O=C(N[C@H]1CCOC1=O)C1CCC1: 95

###

Quick list: half-life at 50 μM per entry.
Assay: Hydrolytic stability in buffers of varying pH by HPLC
Type: physicochemical
Conditions: pH 8, 1 mM TRIS buffer, room temperature
MEASURED PROPERTY: half-life at 50 μM (h)

O=C(COc1ccc(I)cc1)N[C@H]1CCSC1=O [RN22]: 237
O=C(COc1ccc(I)cc1)NC1CCOC1=O (centres unmarked) [Compound E22, reference compound]: 10.1

###

Quick list: Fold selectivity of RhlR agonists over LasR agonism per entry.
Target: LasR (Pseudomonas aeruginosa, UniProt P25084)
Construct: expressed in transfected cells; host or cells: E. coli JLD271 (ΔsdiA) with pJN105L and pSC11
Experiment: Selectivity of RhlR agonism over LasR agonism (E. coli LasR reporter JLD271/pJN105L/pSC11)
Format: cell-based, P. aeruginosa
Details: tested concentration 10 μm; RhlR % activity divided by LasR % activity; > = negligible activity in LasR reporter
Marks after values point to notes of the source that are not given here.
MEASURED PROPERTY: Fold selectivity of RhlR agonists over LasR agonism

CC(C)CC(=O)N[C@H]1CCOC1=O [Compound J18, isovaleryl HL]: 255^ fold
O=C(N[C@H]1CCSC1=O)C1CCC1 [RN15]: >88^b fold
O=C(N[C@H]1CCOC1=O)C1CCC1 [Compound J24, cyclobutanoyl AHL]: >79^b fold
